# assayTarget: PPARγ (Homo sapiens)
# Sequence (P37231 whole entry): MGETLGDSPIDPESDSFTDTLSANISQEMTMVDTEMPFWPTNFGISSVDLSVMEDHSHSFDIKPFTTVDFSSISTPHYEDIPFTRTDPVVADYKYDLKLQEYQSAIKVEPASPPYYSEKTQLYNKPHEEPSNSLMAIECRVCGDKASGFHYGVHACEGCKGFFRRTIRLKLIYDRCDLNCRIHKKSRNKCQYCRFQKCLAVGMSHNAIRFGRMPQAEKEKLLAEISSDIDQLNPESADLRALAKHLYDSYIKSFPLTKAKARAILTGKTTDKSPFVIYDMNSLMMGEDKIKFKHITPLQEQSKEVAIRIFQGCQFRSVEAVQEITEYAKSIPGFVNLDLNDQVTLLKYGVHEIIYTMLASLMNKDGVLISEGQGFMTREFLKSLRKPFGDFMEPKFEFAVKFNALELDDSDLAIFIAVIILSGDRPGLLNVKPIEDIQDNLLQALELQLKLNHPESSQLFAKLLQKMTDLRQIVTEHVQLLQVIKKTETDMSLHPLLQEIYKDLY
# protocol: PPARγ reporter assay (INDIGO Biosciences)
# Type: cell-based
# conditionDescription: 20 h, read-out: PPARγ % rosiglitazone (500 nM), 12.5 μM test compound; luciferase reporter cells, 20 hours; activity compared to rosiglitazone
propertyName: Emax at 12.5 µM

Memo: `CC(C)CCC(=O)[C@@]1(O)C(O)=C(C(=O)CC(C)C)C(=O)[C@H]1CCC(C)C` , reported Emax at 12.5 µM: < 5%

Form: molecule = `CC(C)CCC(=O)[C@@]1(OC(=O)C(C)(C)C)C(O)=C(C(=O)CC(C)C)C(=O)[C@@H]1CCC(C)C` ; Emax at 12.5 µM = ≥ 5%

Sample `CC(C)CCC(=O)[C@@]1(O)C(=O)/C(=C(\CC(C)C)NCCO)C(=O)[C@@H]1CCC(C)C` ; Emax at 12.5 µM observed: < 5%

###

The reader will find reported inhibition at 12.5 µM values listed item by item below.
# Test system: LPS-mediated MIP-1α production in THP-1 cells
# protocol: LPS-mediated MIP-1α production in THP-1 cells
# Type: cell-based
# conditionDescription: Homo sapiens; 12.5 μM test compound; THP-1 cells, LPS 1 μg/ml; NI = no inhibition
# Description: THIAA derivatives synthesized in Examples 1-19 were dissolved in dimethyl sufoxide (DMSO) and stored at −20° C. LPS was purchased from Sigma Chemicals (St. Louis, Miss.). The effect of the THIAA derivatives on LPS-mediated MMP-9, IL-1β, ([…], MCP-1, RANTES, and MIP-1α was evaluated in THP-1 cells. Stimulation of THP-1 cells with LPS (1 μg/ml) activated the production of MMP-9, IL-1β, MCP-1, RANTES, and MIP-1α. […]
Give a bare numeral; the unit % is implied.

C#CCCOC(=O)O[C@]1(C(=O)CCC(C)C)C(O)=C(C(=O)CC(C)C)C(=O)[C@@H]1CCC(C)C: 82
CC(C)CCC(=O)[C@@]1(O)C(O)=C(C(=O)CC(C)C)C(=O)[C@H]1CCC(C)C: 36
CO/N=C(/CC(C)C)C1=C(O)[C@](O)(C(O)CCC(C)C)[C@@H](CCC(C)C)C1=O (stereo partly drawn): 20
CC(C)CCC(O)[C@@]1(O)C(O)=C(C(=O)CC(C)C)C(=O)[C@@H]1CCC(C)C (stereo partly drawn): 23

# next compound below
Entry `CC(C)CCC(=O)[C@@]1(OC(=O)C(C)(C)C)C(O)=C(C(=O)CC(C)C)C(=O)[C@@H]1CCC(C)C` under LPS-mediated MIP-1α production in THP-1 cells had inhibition at 12.5 µM of 95

###

List of inhibition at 12.5 µM values.
# Test system: LPS-mediated MIP-1α production in THP-1 cells
# protocol: LPS-mediated MIP-1α production in THP-1 cells
# Assay type: cell-based
# conditionDescription: Homo sapiens; 12.5 μM test compound; THP-1 cells, LPS 1 μg/ml; NI = no inhibition

Observe how each entry below is paired with its result.
CC(C)CC[C@H]1C(=O)C(C(=O)CC(C)C)=C(O)[C@]1(O)C(=O)CCC(C)C(=O)O (stereo partly shown) [KDT0038]: < 0%
CN/C(CC(C)C)=C1\C(=O)[C@H](CCC(C)C)[C@@](O)(C(=O)CCC(C)C)C1=O [KDT0020]: < 20%
CC(C)CCC(=O)[C@@]1(O)C(O)=C(C(=O)C(C)C)C(=O)[C@@H]1CCC(C)C [KDT100]: < 0%

For CC(C)=CC[C@H]1C(=O)C(C(=O)CC(C)C)=C(O)[C@]1(O)C(=O)/C=C/C(C)(C)O [KDT0040] the molecule record lists inhibition at 12.5 µM as < 0%
